target: T1, murine BACE1 ECD; test: Octet, pH 5.0;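 further: antibodies captured on anti-human capture sensor tips, dissociation monitored in PBS with BSA buffer, kinetics fitted with a one-to-one binding model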
T1 construct: analyte of the Octet assay (200 nM) and enzyme of the first short substrate assay
T1 sequence (single chain, as listed by the source limits assumed): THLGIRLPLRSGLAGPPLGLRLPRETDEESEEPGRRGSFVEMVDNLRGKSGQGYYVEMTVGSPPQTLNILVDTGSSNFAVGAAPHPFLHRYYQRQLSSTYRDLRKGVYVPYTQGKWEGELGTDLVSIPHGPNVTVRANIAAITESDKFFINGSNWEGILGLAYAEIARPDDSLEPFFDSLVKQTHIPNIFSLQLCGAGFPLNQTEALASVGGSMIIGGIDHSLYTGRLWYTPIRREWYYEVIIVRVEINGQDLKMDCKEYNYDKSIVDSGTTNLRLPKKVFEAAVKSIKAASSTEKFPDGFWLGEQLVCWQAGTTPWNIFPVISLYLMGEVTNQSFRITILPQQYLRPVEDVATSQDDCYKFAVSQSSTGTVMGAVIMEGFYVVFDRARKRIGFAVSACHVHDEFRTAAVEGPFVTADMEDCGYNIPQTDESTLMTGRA
Reported values of pKd for individual entries
To interpret pKd, take it as minus log10 of a concentration measured in moles per litre.

Below, each entry is followed by its recorded pKd result.
binder	pKd
6289 (antibody, V domains shown, anti-BACE1 IgG) VH: QLQLQESGPGLVKPSETLSLTCTVSGGSISSSSYYWGWIRQPPGKGLEWIGSIYRSGSTYYNPSLRSRVTISVDTSKNQFSLKLSSVTAADTAVYYCVRVGHGISYFDLWGRGTLVTVSS VL: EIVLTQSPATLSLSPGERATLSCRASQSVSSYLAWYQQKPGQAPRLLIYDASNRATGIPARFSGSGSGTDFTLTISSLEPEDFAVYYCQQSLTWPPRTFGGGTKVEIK	9.42
anti-BACE1 antibody 6266 (antibody, V domains shown, Fully human antibody) VH: EVQLVQSGAEVKKPGSSVKVSCKASGGTLSGYGVSWVRQAPGQGLEWMGNIIPGFGTANYAQKFQGRVTITADESTSTAYMELSSLRSEDTAVYYCARSGGTKYGMLDVWGQGTMVTVSS VL: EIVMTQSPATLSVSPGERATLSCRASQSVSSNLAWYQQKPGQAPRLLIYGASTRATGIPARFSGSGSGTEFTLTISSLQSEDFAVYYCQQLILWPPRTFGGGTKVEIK	9.49

Could you now consider this next binder?
// query pKd value for entry 6288 (antibody, V domains shown, anti-BACE1 IgG) VH: QLQLQESGPGLVKPSETLSLTCTVSGGSTSSSSYYWGWIRQPPGKGLEWIGSIYRSGSTYYNPSLRSRVTISVDTSKNQFSLKLSSVTAADTAVYYCARVGHGISYFDLWGRGTLVTVSS VL: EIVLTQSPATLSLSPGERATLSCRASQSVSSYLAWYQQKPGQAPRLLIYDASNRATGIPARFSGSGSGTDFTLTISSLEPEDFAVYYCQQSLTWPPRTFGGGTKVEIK
9.55

These entries and their values trace back to patent US20180057604A1.
